Tested on: IGROV1 ovarian
Procedure details: NCI tumour cell line growth inhibition, 48 h
Measurement type: TGI

Input line: Look up TGI for this compound: `O=C(Nc1cccc2ccccc12)Nn1cnnc1`
Output line: > 100 µM

Input line: Now the compound `N=c1oc2ccc([N+](=O)[O-])cc2cc1C(=O)NCc1ccccc1`
Output line: 30.9 µM

Input line: Ok, now COC1CC(C)C(OC)C2=CC(=O)C=C(NC(=O)/C(C)=C/C=C\C(C)C(OC(N)=O)/C(C)=C\C(C)C1OC)C2=O (stereo unspecified)
Output line: 17.8 µM

Input line: Next up: `CCOC(=O)Nc1nc2ccc(Cn3cccc3)cc2[nH]1`
Output line: > 100 µM

Input line: And what about the compound `Cc1oc2c(c1C)S(=O)(=O)C(C#N)=C(c1ccccc1)N2` ?
Output line: > 100 µM

Input line: Entry CC1C[C@@]2(c3ccccc3)C(=O)CCC[C@H]2N1 (stereo partly specified) please
Output line: > 100 µM
